Test system: KRAS PDC multicell spheroid viability;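 also: drug exposure lasted seven days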
assay.procedure: Anticancer human tumor 521955-158-R6-J3-PDC patient-derived pancreatic carcinoma cell line growth inhibition [KRAS2]; active = viability on the fitted dose curve at most 10% of control; inactive = the rest
study.conditions: second compound 3.16 µM; first compound 0.0316 µM
Pick one and only one: t = active, f = inactive

Some solved entries appear below for comparison.
>  <compound>
COC(=O)c1ccc2c(C(=Nc3ccc(N(C)C(=O)CN4CCN(C)CC4)cc3)c3ccccc3)c(O)[nH]c2c1 + CC1OCC2(CCN(c3cnc(Sc4ccnc(N)c4Cl)c(N)n3)CC2)C1N

>  <label.value>
f

$$$$
>  <compound>
O=C(c1cc(Cc2n[nH]c(=O)c3ccccc23)ccc1F)N1CCN(C(=O)C2CC2)CC1 + C=CC(=O)N1CCN(c2nc(OCC3CCCN3C)nc3c2CCN(c2cccc4cccc(C)c24)C3)CC1CC#N

>  <label.value>
f

$$$$
>  <compound>
CC1(C)CCC(CN2CCN(c3ccc(C(=O)NS(=O)(=O)c4ccc(NCC5CCOCC5)c([N+](=O)[O-])c4)c(Oc4cnc5[nH]ccc5c4)c3)CC2)=C(c2ccc(Cl)cc2)C1 + CNCc1ccccc1-c1csc(C(C)Nc2nc(C)nc3cc(OC)c(OC)cc23)c1

>  <label.value>
t

$$$$
>  <compound>
CN(C)C/C=C/C(=O)Nc1cc2c(Nc3ccc(F)c(Cl)c3)ncnc2cc1O[C@H]1CCOC1 + C=CC(=O)N1CCN(c2nc(=O)n(-c3c(C)ccnc3C(C)C)c3nc(-c4c(O)cccc4F)c(F)cc23)C(C)C1

>  <label.value>
f

$$$$
>  <compound>
CC(C)NCC(C(=O)N1CCN(c2ncnc3c2C(C)CC3O)CC1)c1ccc(Cl)cc1 (stereo not given) + C=CC(=O)N1CCN(c2nc(=O)n(-c3c(C)ccnc3C(C)C)c3nc(-c4c(O)cccc4F)c(F)cc23)C(C)C1

>  <label.value>
f

$$$$
>  <compound>
CC(C)n1nc(-c2ccc3oc(N)nc3c2)c2c(N)ncnc21 + C=CC(=O)N1CCN(c2nc(OCC3CCCN3C)nc3c2CCN(c2cccc4cccc(C)c24)C3)CC1CC#N

>  <label.value>
f

$$$$
>  <compound>
Cn1ncnc1[C@H]1c2n[nH]c(=O)c3cc(F)cc(c23)N[C@@H]1c1ccc(F)cc1 + CC1OCC2(CCN(c3cnc(Sc4ccnc(N)c4Cl)c(N)n3)CC2)C1N

>  <label.value>
f

$$$$
>  <compound>
COC(=O)c1ccc2c(C(=Nc3ccc(N(C)C(=O)CN4CCN(C)CC4)cc3)c3ccccc3)c(O)[nH]c2c1 + COc1cc2nc(C)nc(NC(C)c3cc(N)cc(C(F)(F)F)c3)c2cc1OC1CCOC1

>  <label.value>
f

$$$$
>  <compound>
CC1OCC2(CCN(c3cnc(Sc4ccnc(N)c4Cl)c(N)n3)CC2)C1N (stereo not given) + C=CC(=O)N1CCN(c2nc(=O)n(-c3c(C)ccnc3C(C)C)c3nc(-c4c(O)cccc4F)c(F)cc23)C(C)C1

>  <label.value>
f

$$$$
>  <compound>
O=C(c1cc(Cc2n[nH]c(=O)c3ccccc23)ccc1F)N1CCN(C(=O)C2CC2)CC1 + C=CC(=O)N1CCN(c2nc(=O)n(-c3c(C)ccnc3C(C)C)c3nc(-c4c(O)cccc4F)c(F)cc23)C(C)C1

>  <label.value>
f

$$$$

Q: For this compound, state the assay outcome: CC(C)NCC(C(=O)N1CCN(c2ncnc3c2C(C)CC3O)CC1)c1ccc(Cl)cc1 (stereo not given) + C=CC(=O)N1CCN(c2nc(OCC3CCCN3C)nc3c2CCN(c2cccc4cccc(C)c24)C3)CC1CC#N
Ans: f

Q: Hi, do you know how COc1cc(Nc2ncc3c(n2)-c2ccc(Cl)cc2C(c2c(F)cccc2OC)=NC3)ccc1C(=O)O + C=CC(=O)N1CCN(c2nc(=O)n(-c3c(C)ccnc3C(C)C)c3nc(-c4c(O)cccc4F)c(F)cc23)C(C)C1 came out in this test?
Ans: f
